Tested on: hTERT
method.notes: Secreted alkaline phosphatase (SEAP) assay, PhTERT-SEAP (H1299)
Type: cell-based
reported.conditions: Homo sapiens, NCI-H1299, Conc. 100 μM, 24 hours, read-out: Relative SEAP activity (%) (converted)
Method: H1299 were grown in RPMI 1640 media supplemented with 10% fetal bovine serum, 100 units/mL penicillin and […] streptomycin in a humidified atmosphere with 5% CO2 at 37° C. Culture media were changed every three days. […]
Hi there, I'd appreciate the recorded activity at 100 µM for every entry that follows.
Answers are plain numbers, in %.

Study these solved cases before continuing.
smiles.entry | target.desc | activity at 100 µM, %
Cc1ccc(C(=O)Nc2c(NC(=O)CN(C)CC3OCCO3)ccc3c2C(=O)c2ccccc2C3=O)cc1 | hTERT | 10.2
Cc1ccc(C(=O)Nc2c(NC(=O)CN3CCOCC3)ccc3c2C(=O)c2ccccc2C3=O)cc1 | hTERT | 3.75

Tell me the measured activity at 100 µM of Nc1c(NC(=O)CCl)ccc2c1C(=O)c1ccccc1C2=O , please.
3.23

====

Test system: SK-MEL-2
method.notes: NCI drug screen, SK-MEL-2
Type: cell-based, human
reported.conditions: SK-MEL-2 (Melanoma); 1.00E−5 Molar
Hi there, I'd appreciate the recorded Growth Percent for every entry that follows.
Reply with the number, then its unit.

Study these solved cases before continuing.
smiles.entry | measured.parameter | recorded.result
Cc1ccc(C(=O)Nc2ccc3c(c2NC(=O)c2ccc(C)cc2)C(=O)c2ccccc2C3=O)cc1 | Growth Percent | 100.65%
Cc1ccc(C(=O)Nc2c(NC(=O)CN3CCCC3)ccc3c2C(=O)c2ccccc2C3=O)cc1 | Growth Percent | 102.17%
O=C(CCl)Nc1ccc2c(c1NC(=O)Cc1ccccc1)C(=O)c1ccccc1C2=O | Growth Percent | −6.49%
Cc1ccc(C(=O)Nc2c(NC(=O)CCl)ccc3c2C(=O)c2ccccc2C3=O)cc1 | Growth Percent | 52.00%

Form field - read-out: Growth Percent; system: SK-MEL-2; submitted item: Cc1ccc(C(=O)Nc2c(NC(=O)CN3CCN(C)CC3)ccc3c2C(=O)c2ccccc2C3=O)cc1
123.64%

====

Hi there, I'd appreciate the recorded melting point for every entry that follows.

Batch of 8 molecules: report melting point for each.
1. O=C(CCl)Nc1ccc2c(c1NC(=O)c1cccs1)C(=O)c1ccccc1C2=O [CC-28]
2. Cc1ccc(C(=O)Nc2c(NC(=O)CN3CCCCC3)ccc3c2C(=O)c2ccccc2C3=O)cc1 [CC-39]
3. O=C(CCl)Nc1ccc2c(c1NC(=O)c1ccno1)C(=O)c1ccccc1C2=O [CC-29]
4. Cc1ccc(C(=O)Nc2c(NC(=O)CN3CCN(c4ccccc4)CC3)ccc3c2C(=O)c2ccccc2C3=O)cc1 [CC-45]
5. O=C(CCCCl)Nc1ccc2c(c1NC(=O)CCCCl)C(=O)c1ccccc1C2=O [CC-03]
6. O=C(CN1CCN(c2ccccc2F)CC1)Nc1ccc2c(c1NC(=O)c1ccccc1)C(=O)c1ccccc1C2=O [CC-34]
7. Cc1ccc(C(=O)Nc2c(NC(=O)CN3CCN(c4ccccc4C#N)CC3)ccc3c2C(=O)c2ccccc2C3=O)cc1 [CC-47]
8. Cc1ccc(C(=O)Nc2c(NC(=O)CN(C)CCc3ccccn3)ccc3c2C(=O)c2ccccc2C3=O)cc1 [CC-37]

["190 to 191 °C", "213 to 214 °C", "212 to 213 °C", "270 to 271 °C", "154 to 155 °C", "228 to 229 °C", "238 to 239 °C", "166 to 167 °C"]

====

method.notes: MTT assay, PhTERT-SEAP (H1299)
Assay type: cell-based, human
reported.conditions: human, H1299 cells carrying the PhTERT-SEAP reporter; Conc. 1 μM; PhTERT-SEAP (H1299); read-out: Relative MTT viability (%)
measured.parameter: viability at 1 μM (%)
Answers are plain numbers, in %.

Study these solved cases before continuing.
compound | recorded.result
Cc1ccc(C(=O)Nc2c(NC(=O)CN3CCOCC3)ccc3c2C(=O)c2ccccc2C3=O)cc1 | 81.5
O=C(CCl)Nc1ccc2c(c1NC(=O)CCl)C(=O)c1ccccc1C2=O | 8.1
Cc1cc(C(=O)Nc2c(NC(=O)CCl)ccc3c2C(=O)c2ccccc2C3=O)c(C)o1 | 96

Batch of 3 compounds: report viability at 1 μM for each.
1. O=C(CCl)Nc1ccc2c(c1NC(=O)COc1ccccc1)C(=O)c1ccccc1C2=O
2. CC(Cl)C(=O)Nc1c(NC(=O)CCl)ccc2c1C(=O)c1ccccc1C2=O (centres unmarked)
3. O=C(CCl)Nc1ccc2c(c1NC(=O)c1ccccc1F)C(=O)c1ccccc1C2=O

1: 101; 2: 9.01; 3: 78.8

Batch of 2 compounds: report viability at 1 μM for each.
1. Cc1ccc(C(=O)Nc2c(NC(=O)CN3CCN(c4ccccn4)CC3)ccc3c2C(=O)c2ccccc2C3=O)cc1
2. O=C(CCl)Nc1ccc2c(c1NC(=O)c1ccc(Cl)cc1)C(=O)c1ccccc1C2=O

105
92.4

====

Hi there, I'd appreciate the recorded melting point for every entry that follows.

smiles.entry | recorded.result
Nc1c(NC(=O)CCl)ccc2c1C(=O)c1ccccc1C2=O | 193 to 194 °C
Cc1cc(C(=O)Nc2c(NC(=O)CCl)ccc3c2C(=O)c2ccccc2C3=O)c(C)o1 | 207 to 208 °C
Cc1ccc(C(=O)Nc2c(NC(=O)CN3CCOCC3)ccc3c2C(=O)c2ccccc2C3=O)cc1 | 225 to 226 °C

Tell me the measured melting point of O=C(CCl)Nc1ccc2c(c1NC(=O)C1CCCCC1)C(=O)c1ccccc1C2=O , please.
216 to 217 °C

====

method.notes: MTT assay, PhTERT-SEAP (H1299)
Assay type: cell-based, human
reported.conditions: human, H1299 cells carrying the PhTERT-SEAP reporter; Conc. 1 μM; PhTERT-SEAP (H1299); read-out: Relative MTT viability (%)
Experimental: Further, cells were subjected to MTT assay to compare the relative toxicity or effect of each compound on cell proliferation and activity. The above-described cells are cultured in a 96-well plate, to which was added with 25 μl MTT solution, and cultured in a 37° C. carbon dioxide incubator for 4 hours. Then, 100 μl Lysis buffer is added and incubated in a 37° C. carbon dioxide incubator overnight. An ELISA reader (Bio-Rad Model 450) is used to read optical density (O.D.) at 550 nm.
measured.parameter: viability at 1 μM (%)
One number for each entry, in %.

Study these solved cases before continuing.
molecule | units.symbol | viability at 1 μM
Cc1ccc(C(=O)Nc2c(NC(=O)CCl)ccc3c2C(=O)c2ccccc2C3=O)cc1 [CC-12] | % | 104
Cc1ccc(C(=O)Nc2c(NC(=O)CN3CCSCC3)ccc3c2C(=O)c2ccccc2C3=O)cc1 [CC-42] | % | 85.8
Cc1ccc(C(=O)Nc2c(NC(=O)CN3CCN(C)CC3)ccc3c2C(=O)c2ccccc2C3=O)cc1 [CC-43] | % | 78.8

API: the following record is the query input.
Tell me the measured viability at 1 μM of O=C(CCl)Nc1ccc2c(c1NC(=O)c1ccno1)C(=O)c1ccccc1C2=O [CC-29] , please.
105

====

method.notes: MTT assay, PhTERT-SEAP (H1299)
Type: cell-based, human
reported.conditions: human, H1299 cells carrying the PhTERT-SEAP reporter; Conc. 1 μM; PhTERT-SEAP (H1299); read-out: Relative MTT viability (%)
Procedure: Further, cells were subjected to MTT assay to compare the relative toxicity or effect of each compound on cell proliferation and activity. The above-described cells are cultured in a 96-well plate, to which was added with 25 μl MTT solution, and cultured in a 37° C. carbon dioxide incubator for 4 hours. Then, 100 μl Lysis buffer is added and incubated in a 37° C. carbon dioxide incubator overnight. An ELISA reader (Bio-Rad Model 450) is used to read optical density (O.D.) at 550 nm.
measured.parameter: viability at 1 μM (%)
One number for each entry, in %.

smiles.entry | units.symbol | viability at 1 μM
Cc1ccc(C(=O)Nc2c(NC(=O)CN(C)CC3OCCO3)ccc3c2C(=O)c2ccccc2C3=O)cc1 | % | 104
Cc1ccc(C(=O)Nc2c(NC(=O)CN3CCN(c4ccccc4)CC3)ccc3c2C(=O)c2ccccc2C3=O)cc1 | % | 80.8
O=C(CCl)Nc1ccc2c(c1NC(=O)c1cc(C(F)(F)F)ccc1C(F)(F)F)C(=O)c1ccccc1C2=O | % | 86.7
O=C(CCl)Nc1ccc2c(c1NC(=O)c1ccc(F)cc1)C(=O)c1ccccc1C2=O | % | 10.9
O=C(CCCCl)Nc1ccc2c(c1NC(=O)CCCCl)C(=O)c1ccccc1C2=O | % | 103

Batch of 3 compounds: report viability at 1 μM for each.
1. Cc1ccc(C(=O)Nc2c(NC(=O)CN3CCN(c4ccccc4C#N)CC3)ccc3c2C(=O)c2ccccc2C3=O)cc1
2. Cc1ccc(C(=O)Nc2c(NC(=O)CN3CCCC3)ccc3c2C(=O)c2ccccc2C3=O)cc1
3. O=C(CCl)Nc1ccc2c(c1NC(=O)c1cccc(F)c1)C(=O)c1ccccc1C2=O

1. 72
2. 88.2
3. 18.3

Where do the numbers come from? From patent US8530465B2.
